Experiment: Cytotoxicity against African green monkey Vero cells incubated for 72 hrs by MTT assay
Format: cell-based
Settings: chlorocebus sabaeus
readout-name: CC50 at 72 h (µg/mL)

smi=COc1c(N2C[C@H]3CCCN(C(=O)Cn4cc(CN5C(=O)C(=O)c6cccc(F)c65)nn4)[C@H]3C2)c(F)cc2c(=O)c(C(=O)O)cn(C3CC3)c12 value_qualifier== readout_value=32
smi=COc1c(N2C[C@H]3CCCN(C(=O)Cn4cc(CN5C(=O)C(=O)c6cc(C)ccc65)nn4)[C@H]3C2)c(F)cc2c(=O)c(C(=O)O)cn(C3CC3)c12 value_qualifier== readout_value=64
smi=COc1c(N2C[C@H]3CCCN(C(=O)Cn4cc(CN5C(=O)/C(=N/O)c6cc(F)ccc65)nn4)[C@H]3C2)c(F)cc2c(=O)c(C(=O)O)cn(C3CC3)c12 value_qualifier== readout_value=16
smi=COc1c(N2C[C@H]3CCCN(C(=O)Cn4cc(CN5C(=O)/C(=N/O)c6ccccc65)nn4)[C@H]3C2)c(F)cc2c(=O)c(C(=O)O)cn(C3CC3)c12 value_qualifier== readout_value=32
smi=COc1c(N2C[C@H]3CCCN(C(=O)Cn4cc(CN5C(=O)/C(=N/NC(N)=S)c6ccccc65)nn4)[C@H]3C2)c(F)cc2c(=O)c(C(=O)O)cn(C3CC3)c12 value_qualifier== readout_value=16
smi=COc1c(N2C[C@H]3CCCN(C(=O)Cn4cc(CN5C(=O)/C(=N/NC(N)=S)c6cc(F)ccc65)nn4)[C@H]3C2)c(F)cc2c(=O)c(C(=O)O)cn(C3CC3)c12 value_qualifier== readout_value=8
smi=CO/N=C1/C(=O)N(Cc2cn(CC(=O)N3CCC[C@@H]4CN(c5c(F)cc6c(=O)c(C(=O)O)cn(C7CC7)c6c5OC)C[C@@H]43)nn2)c2ccc(C)cc21 value_qualifier== readout_value=64
smi=COc1c(N2C[C@H]3CCCN(C(=O)Cn4cc(CN5C(=O)/C(=N/NC(N)=S)c6cccc(F)c65)nn4)[C@H]3C2)c(F)cc2c(=O)c(C(=O)O)cn(C3CC3)c12 value_qualifier== readout_value=8
smi=COc1c(N2C[C@H]3CCCN(C(=O)Cn4cc(CN5C(=O)C(=O)c6ccccc65)nn4)[C@H]3C2)c(F)cc2c(=O)c(C(=O)O)cn(C3CC3)c12 value_qualifier== readout_value=32
smi=CO[C@H]1/C=C/O[C@@]2(C)Oc3c(C)c(O)c4c(O)c(c(/C=N/N5CCN(C)CC5)c(O)c4c3C2=O)NC(=O)/C(C)=C\C=C\[C@H](C)[C@H](O)[C@@H](C)[C@@H](O)[C@@H](C)[C@H](OC(C)=O)[C@@H]1C value_qualifier=> readout_value=128
smi=COc1c(N2C[C@H]3CCCN(C(=O)Cn4cc(CN5C(=O)C(=O)c6cc(F)ccc65)nn4)[C@H]3C2)c(F)cc2c(=O)c(C(=O)O)cn(C3CC3)c12 value_qualifier== readout_value=16

###

Assay: Selectivity index, ratio of CC50 for African green monkey Vero cells to MIC for Mycobacterium tuberculosis H37Rv
Type: toxicity
Conditions: read-out: Selectivity Index
readout-name: selectivity ratio

smi=COc1c(N2C[C@H]3CCCN(C(=O)Cn4cc(CN5C(=O)/C(=N/NC(N)=S)c6ccccc65)nn4)[C@H]3C2)c(F)cc2c(=O)c(C(=O)O)cn(C3CC3)c12 readout_name="selectivity ratio" readout_value=128
smi=COc1c(N2C[C@H]3CCCN(C(=O)Cn4cc(CN5C(=O)/C(=N/O)c6cc(F)ccc65)nn4)[C@H]3C2)c(F)cc2c(=O)c(C(=O)O)cn(C3CC3)c12 readout_name="selectivity ratio" readout_value=8
smi=COc1c(N2C[C@H]3CCCN(C(=O)Cn4cc(CN5C(=O)/C(=N/NC(N)=S)c6cccc(F)c65)nn4)[C@H]3C2)c(F)cc2c(=O)c(C(=O)O)cn(C3CC3)c12 readout_name="selectivity ratio" readout_value=1

###

# selectivity ratio values compiled below
Assay: Selectivity index, ratio of CC50 for African green monkey Vero cells to MIC for Mycobacterium tuberculosis H37Rv
Assay type: toxicity
Settings: read-out: Selectivity Index
readout-name: selectivity ratio

compound=COc1c(N2C[C@H]3CCCN(C(=O)Cn4cc(CN5C(=O)/C(=N/O)c6cccc(F)c65)nn4)[C@H]3C2)c(F)cc2c(=O)c(C(=O)O)cn(C3CC3)c12 readout_name="selectivity ratio" value_qualifier== readout_value=1
compound=CO/N=C1/C(=O)N(Cc2cn(CC(=O)N3CCC[C@@H]4CN(c5c(F)cc6c(=O)c(C(=O)O)cn(C7CC7)c6c5OC)C[C@@H]43)nn2)c2c(F)cccc21 readout_name="selectivity ratio" value_qualifier== readout_value=1
compound=COc1c(N2C[C@H]3CCCN(C(=O)Cn4cc(CN5C(=O)C(=O)c6cc(C)ccc65)nn4)[C@H]3C2)c(F)cc2c(=O)c(C(=O)O)cn(C3CC3)c12 readout_name="selectivity ratio" value_qualifier== readout_value=32
compound=CO[C@H]1/C=C/O[C@@]2(C)Oc3c(C)c(O)c4c(O)c(c(/C=N/N5CCN(C)CC5)c(O)c4c3C2=O)NC(=O)/C(C)=C\C=C\[C@H](C)[C@H](O)[C@@H](C)[C@@H](O)[C@@H](C)[C@H](OC(C)=O)[C@@H]1C readout_name="selectivity ratio" value_qualifier=> readout_value=512
compound=NNC(=O)c1ccncc1 readout_name="selectivity ratio" value_qualifier== readout_value=1024
compound=CO/N=C1/C(=O)N(Cc2cn(CC(=O)N3CCC[C@@H]4CN(c5c(F)cc6c(=O)c(C(=O)O)cn(C7CC7)c6c5OC)C[C@@H]43)nn2)c2ccc(F)cc21 readout_name="selectivity ratio" value_qualifier== readout_value=32
compound="COc1c(N2CCNC(C)C2)c(F)cc2c(=O)c(C(=O)O)cn(C3CC3)c12 (configuration not stated)" readout_name="selectivity ratio" value_qualifier== readout_value=128

###

Tested on: Mycobacterium tuberculosis
Test: Antimycobacterial activity against Mycobacterium tuberculosis H37Rv incubated for 7 days by rapid direct susceptibility test
Assay type: functional
Settings: 168 h
readout-name: MIC (µg/mL)

compound=COc1c(N2C[C@H]3CCCN(C(=O)Cn4cc(CN5C(=O)/C(=N/NC(N)=S)c6cccc(F)c65)nn4)[C@H]3C2)c(F)cc2c(=O)c(C(=O)O)cn(C3CC3)c12 readout_value=8
compound="NNC(=O)c1ccncc1 [ISONIAZID]" readout_value=0.12
compound=COc1c(N2C[C@H]3CCCN(C(=O)Cn4cc(CN5C(=O)C(=O)c6cc(F)ccc65)nn4)[C@H]3C2)c(F)cc2c(=O)c(C(=O)O)cn(C3CC3)c12 readout_value=1
compound="CO[C@H]1/C=C/O[C@@]2(C)Oc3c(C)c(O)c4c(O)c(c(/C=N/N5CCN(C)CC5)c(O)c4c3C2=O)NC(=O)/C(C)=C\\C=C\\[C@H](C)[C@H](O)[C@@H](C)[C@@H](O)[C@@H](C)[C@H](OC(C)=O)[C@@H]1C [RIFAMPIN]" readout_value=0.06
compound=CO/N=C1/C(=O)N(Cc2cn(CC(=O)N3CCC[C@@H]4CN(c5c(F)cc6c(=O)c(C(=O)O)cn(C7CC7)c6c5OC)C[C@@H]43)nn2)c2ccc(F)cc21 readout_value=1
compound=COc1c(N2C[C@H]3CCCN(C(=O)Cn4cc(CN5C(=O)C(=O)c6ccccc65)nn4)[C@H]3C2)c(F)cc2c(=O)c(C(=O)O)cn(C3CC3)c12 readout_value=0.25
compound=COc1c(N2C[C@H]3CCCN(C(=O)Cn4cc(CN5C(=O)/C(=N/NC(N)=S)c6cc(F)ccc65)nn4)[C@H]3C2)c(F)cc2c(=O)c(C(=O)O)cn(C3CC3)c12 readout_value=0.25
compound=COc1c(N2C[C@H]3CCCN(C(=O)Cn4cc(CN5C(=O)/C(=N/O)c6cc(F)ccc65)nn4)[C@H]3C2)c(F)cc2c(=O)c(C(=O)O)cn(C3CC3)c12 readout_value=2
compound="COc1c(N2C[C@@H]3CCCN[C@@H]3C2)c(F)cc2c(=O)c(C(=O)O)cn(C3CC3)c12 [MOXIFLOXACIN]" readout_value=0.12
compound=CO/N=C1/C(=O)N(Cc2cn(CC(=O)N3CCC[C@@H]4CN(c5c(F)cc6c(=O)c(C(=O)O)cn(C7CC7)c6c5OC)C[C@@H]43)nn2)c2ccc(C)cc21 readout_value=4
compound=CO/N=C1/C(=O)N(Cc2cn(CC(=O)N3CCC[C@@H]4CN(c5c(F)cc6c(=O)c(C(=O)O)cn(C7CC7)c6c5OC)C[C@@H]43)nn2)c2ccccc21 readout_value=0.5
compound=CO/N=C1/C(=O)N(Cc2cn(CC(=O)N3CCC[C@@H]4CN(c5c(F)cc6c(=O)c(C(=O)O)cn(C7CC7)c6c5OC)C[C@@H]43)nn2)c2c(F)cccc21 readout_value=16
compound="COc1c(N2CCNC(C)C2)c(F)cc2c(=O)c(C(=O)O)cn(C3CC3)c12 (stereo not drawn) [GATIFLOXACIN]" readout_value=0.5
compound=COc1c(N2C[C@H]3CCCN(C(=O)Cn4cc(CN5C(=O)/C(=N/NC(N)=S)c6ccccc65)nn4)[C@H]3C2)c(F)cc2c(=O)c(C(=O)O)cn(C3CC3)c12 readout_value=0.12
compound=COc1c(N2C[C@H]3CCCN(C(=O)Cn4cc(CN5C(=O)C(=O)c6cc(C)ccc65)nn4)[C@H]3C2)c(F)cc2c(=O)c(C(=O)O)cn(C3CC3)c12 readout_value=2
compound=COc1c(N2C[C@H]3CCCN(C(=O)Cn4cc(CN5C(=O)/C(=N/O)c6cccc(F)c65)nn4)[C@H]3C2)c(F)cc2c(=O)c(C(=O)O)cn(C3CC3)c12 readout_value=16
compound=COc1c(N2C[C@H]3CCCN(C(=O)Cn4cc(CN5C(=O)/C(=N/O)c6ccccc65)nn4)[C@H]3C2)c(F)cc2c(=O)c(C(=O)O)cn(C3CC3)c12 readout_value=1
compound=COc1c(N2C[C@H]3CCCN(C(=O)Cn4cc(CN5C(=O)C(=O)c6cccc(F)c65)nn4)[C@H]3C2)c(F)cc2c(=O)c(C(=O)O)cn(C3CC3)c12 readout_value=8
